Listed binders paired with reported pIC50
molecular target: soluble I-A^g7 (I-Aα–Fos / I-Aβ–Jun heterodimer) (mouse (NOD) | not stated); test: antibody-capture peptide binding assay with europium-streptavidin
pIC50: −log10 of the molar value.

Known results for binders:
| binder | result |
| --- | --- |
| PVSQMRMATPLLNRP [Murine CLIP analogue with N at position 98 (P9), unlabeled] | 3.90 |
| PVSQMRMATPLLFRP [Murine CLIP analogue with F at position 98 (P9), unlabeled] | 4.30 |
| PVSQMRMATPLLLRP [Murine CLIP analogue with L at position 98 (P9), unlabeled] | < 3.90 |
| PVSQMRMATPLLKRP [Murine CLIP analogue with K at position 98 (P9), unlabeled] | < 3.90 |
| PVSQMRMATPLLPRP [Murine CLIP analogue with P at position 98 (P9), unlabeled] | < 3.90 |
| PVSQMRMATPLLQRP [Murine CLIP analogue with Q at position 98 (P9), unlabeled] | < 3.90 |

Find the recorded pIC50 belonging to PVSQMRMATPLLTRP [Murine CLIP analogue with T at position 98 (P9), unlabeled] and report it.
4.40

Find the recorded pIC50 belonging to PVSQMRMATPLLRRP [Murine CLIP analogue with R at position 98 (P9), unlabeled] and report it.
< 3.90

Find the recorded pIC50 belonging to PVSQMRMATPLLWRP [Murine CLIP analogue with W at position 98 (P9), unlabeled] and report it.
< 3.90

Find the recorded pIC50 belonging to PVSQMRMATPLLYRP [Murine CLIP analogue with Y at position 98 (P9), unlabeled] and report it.
4.22
